- System: HCT-116
- ASSAY_NOTES: NCI tumour cell line growth inhibition, 48 h
The source made the active and inactive calls. Cut-off read from the data, not from the text of the source: active = GI50 up to about 1.1 µM and inactive = higher.
REPORTED_METRIC: GI50

For orientation, consider the following solved cases.
compound=CN(C)CC/[N+]([O-])=C(/c1ccccc1)C12CC3CC(CC(C3)C1)C2 test_system=HCT-116 reported_metric=GI50 recorded_measurement="17.9 µM (inactive)"
compound="C1CC[N+]23CCCC[N+]2(C1)CCCC3 (stereo not drawn)" test_system=HCT-116 reported_metric=GI50 recorded_measurement="> 100 µM (inactive)"
compound=O=C(CSC1=NC(=O)C2(NN1)c1ccccc1-c1ccccc12)NC(=S)Nc1ccccc1 test_system=HCT-116 reported_metric=GI50 recorded_measurement="> 10 µM (inactive)"
compound=CC(C)(C)OC(=O)N[C@H]1CC2(C=C(Cl)C(=O)C(Cl)=C2)OC1=O test_system=HCT-116 reported_metric=GI50 recorded_measurement="14.8 µM (inactive)"
compound=C/C(=N\NS(=O)(=O)c1ccccc1)c1ccc(Cl)c(Cl)c1 test_system=HCT-116 reported_metric=GI50 recorded_measurement="50.9 µM (inactive)"

Look up GI50: `Nc1nc2ccc3ccccc3c2[nH]1`
> 10 µM (inactive)

Look up GI50: `OCc1ccccc1O[C@H]1O[C@H](CO)[C@@H](O)[C@H](O)[C@H]1O`
> 100 µM (inactive)

Look up GI50: `O=C1CCCC/C1=C1\C(=O)Nc2cc(F)ccc21`
> 100 µM (inactive)

====

- Tested on: 786-0
- ASSAY_NOTES: NCI tumour cell line growth inhibition, 48 h
The source made the active and inactive calls. Rule as the data show it: active = GI50 up to about 1.1 µM and inactive = higher.
API: response.call in active, inactive

compound=O=S(=O)(O)c1cc(/N=N/c2cc(S(=O)(=O)O)c3ccccc3c2O)ccc1/C=C/c1ccc(/N=N/c2cc(S(=O)(=O)O)c3ccccc3c2O)cc1S(=O)(=O)O test_system=786-0 answer_label=inactive
compound=O=c1oc2ccc([N+](=O)[O-])cc2c(Nc2ccc3c(c2)Oc2ccccc2O3)c1[N+](=O)[O-] test_system=786-0 answer_label=inactive
compound=NCCCN(CCCN(C(=O)Nc1ccccc1)c1ccccc1)C(=O)Nc1ccccc1 test_system=786-0 answer_label=inactive
compound=O=C1c2cccc(O)c2C(=O)c2c(O)cccc21 test_system=786-0 answer_label=inactive

Test call for this compound, please: `COc1c(N2CCCCC2)c2c(=O)c3ccccc3oc2c2c3ccccc3n(C)c12`
inactive

Test call for this compound, please: `N=C1N(S(=O)(=O)c2ccccc2)[C@@H](Cc2ccccc2)[C@H](c2ccccc2)C1(c1ccccc1)c1ccccc1`
inactive

Test call for this compound, please: `c1ccc(NCn2cnc3ccccc32)cc1`
inactive

Test call for this compound, please: Cc1cc2c(cc1C)NC1=C(O)C(c3c[nH]c4ccc(COc5ccccc5)cc34)OC1=N2 (stereo not drawn)
inactive

Test call for this compound, please: `Cc1ccc(-c2nc3cc(F)c(N4CCN(C)CC4)cc3[nH]2)cc1`
inactive

Test call for this compound, please: CCOC(=O)CCC(NC(=O)c1ccc(N2CCN(c3c(C)nc(N)nc3N)CC2)cc1)C(=O)OCC (stereo not drawn)
active

Test call for this compound, please: `N#CCCN(c1ccc(/C=N/c2ccccc2Cl)cc1)S(=O)(=O)c1ccccc1`
inactive

Test call for this compound, please: CC[C@@]1(C)CCC2c3ccc(O)cc3CC[C@H]2C1C (stereo partly drawn)
inactive

Test call for this compound, please: `O[C@H]1[C@H]2[C@H](O)CCCN2C[C@H]1O`
inactive

====

- Tested on: SK-MEL-5
- ASSAY_NOTES: NCI tumour cell line growth inhibition, 48 h
Active and inactive are the calls of the source. Cut-off read from the data, not from the text of the source: active = GI50 up to about 1.1 µM and inactive = higher.
API: response.call in T = active, F = inactive

molecule="CCOc1ccc(NC(=O)CC2SC(Nc3ccc(C)cc3)=NC2=O)cc1 (stereo not given)" answer_label=F
molecule="CC(C)CCCCCCCCCCCCC(=O)NCC(=O)NC1C(C)OC(Nc2[nH]cnc3ncnc2-3)C(O)C1O (stereo not given)" answer_label=T
molecule=O=c1c(-c2ccccc2)c(SCCN2CCOCC2)n(-c2ccccc2)c(=S)n1-c1ccccc1 answer_label=F
molecule="CCCCCCCC(CC(=O)NC(CO)C(=O)NC(CO)CC(C)C)OC(=O)CC(CCCCCCC)OC(=O)CC(CCCCCCC)OC1OC(C)C(O)C(OC2OC(C)C(OC(C)=O)C(O)C2O)C1O (stereo not given)" answer_label=F
molecule=NC(=O)CN1CC(C2=C(O)CN(CC(N)=O)C2=O)=CC1=O answer_label=F

Test call for this molecule, please: `COc1ccc2cc(CNCCCN3CCN(CCCNCc4ccc5cc(OC)ccc5c4)CC3)ccc2c1`
F

Test call for this molecule, please: `COc1cc(C(=O)N(C(=S)OC23CC4CC(CC(C4)C2)C3)c2ccccc2)cc(OC)c1OC`
F

Test call for this molecule, please: COc1cccc(C2c3cc4c(cc3OC(C)(N3CCCC3)C2C)OCO4)c1O (stereo not given)
F

Test call for this molecule, please: `C#CC1(O)CCCCCCCCC2(CCCCCCCC1)OCCO2`
F

Test call for this molecule, please: Cc1ccc(-c2cnc(NC3OC(COC(=O)c4ccccc4)C(OC(=O)c4ccccc4)C(OC(=O)c4ccccc4)C3OC(=O)c3ccccc3)s2)cc1 (stereo not given)
F

Test call for this molecule, please: CC(C)(C)OC(=O)NC(CS(=O)(=O)O)C(=O)O (stereo not given)
F

====

GI50 overview
- Test system: HL-60
- ASSAY_NOTES: NCI tumour cell line growth inhibition, 48 h
The source made the active and inactive calls. Rule as the data show it: active = GI50 up to about 1.1 µM and inactive = higher.

For orientation, consider the following solved cases.
compound="CCOC(=O)c1cc(C2CCN(Cc3ccccc3)C2=O)c(C(=O)C(=[N+]=[N-])C(C)=O)[nH]1 (configuration not stated)" test_system=HL-60 recorded_measurement="> 100 µM (inactive)"
compound=O=C1/C(=C/c2ccccc2)CN(C(=O)OCC(Cl)(Cl)Cl)C/C1=C\c1ccccc1 test_system=HL-60 recorded_measurement="0.897 µM (active)"
compound=Cc1cc(N(CCC#N)CCC#N)ccc1/C=C(\NC(=O)/C=C/c1ccccc1)C(=O)N=[N+]=[N-] test_system=HL-60 recorded_measurement="> 100 µM (inactive)"

Look up GI50: `O=C(O)/C(=C\c1ccccc1Cl)S(=O)(=O)c1ccccc1`
> 100 µM (inactive)

Look up GI50: `O=C(NNC(=S)Nc1ccccc1)c1nsc2ccccc12`
20.1 µM (inactive)

Look up GI50: COC(=O)C(=O)C(C(=O)C(=O)Nc1ccc(F)cc1)c1nc2ccc([N+](=O)[O-])cc2nc1O (configuration not stated)
> 100 µM (inactive)

Look up GI50: `O=S(=O)(O)c1ccc2cc(/N=N/c3c(O)ccc4ccccc34)ccc2c1`
> 100 µM (inactive)

====

- System: DU-145
- ASSAY_NOTES: NCI tumour cell line growth inhibition, 48 h
The source made the active and inactive calls. Cut-off read from the data, not from the text of the source: active = GI50 up to about 1.1 µM and inactive = higher.
GI50 overview

Look up GI50: `COc1ccc(/C=C2\CCC/C(=C\c3ccc(O)c(CN4CCCCC4)c3)C2=O)cc1`
9.02 µM (inactive)

Look up GI50: CC1(C)CN(CC(=O)O)CC(Cc2ccc(OCC(=O)O)cc2)N(CC(=O)O)CC(C)(C)SS1 (stereo not given)
> 100 µM (inactive)

Look up GI50: c1cc2cc3c4c5c(cc6ccc7cc8cc9c%10c8c8c7c6c5c8c5c%10c(c1C9N1CCOCCOCCOCCOCCOCC1)c2c45)C3 (stereo not given)
> 100 µM (inactive)

Look up GI50: `C=C1[C@H](OCC(C)C)[C@@H](OCC(C)C)[C@@H](O)C(C)(C)/C=C/[C@H](C)C(=O)[C@@]2(O)C[C@H](C)[C@H](O)[C@@H]2[C@H]1OCC(C)C`
> 7.5 µM (inactive)

Look up GI50: OC(COc1cccc2ccccc12)CN1CCOCC1 (stereo not given)
> 100 µM (inactive)

====

GI50 overview
- Tested on: RXF 393
- ASSAY_NOTES: NCI tumour cell line growth inhibition, 48 h
Activity calls are given as the source filed them. Rule as the data show it: active = GI50 up to about 1.1 µM and inactive = higher.

molecule=Cn1c(=O)c(C(=O)NC23CC4CC(CC(C4)C2)C3)c(O)c2ccccc21 test_system="RXF 393" recorded_measurement="14.8 µM (inactive)"
molecule=N#Cc1c(NCCc2ccc(F)cc2)c2ccccc2n2c1nc1ccccc12 test_system="RXF 393" recorded_measurement="10.7 µM (inactive)"
molecule=COc1ccc2c(O)c3[n+](cc2c1OC)CCc1cc2c(cc1-3)OCO2 test_system="RXF 393" recorded_measurement="25.4 µM (inactive)"
molecule=CCN(CC)C(=O)c1cccc2c(OC)ccc(OC)c12 test_system="RXF 393" recorded_measurement="> 100 µM (inactive)"
molecule="C[C@@H](NC1CCCC[C@H]1O)c1ccccc1 (stereo not given in full)" test_system="RXF 393" recorded_measurement="> 100 µM (inactive)"
molecule="CC(C)(C)OC(=O)NC(CS(=O)(=O)O)C(=O)O (stereo not given)" test_system="RXF 393" recorded_measurement="> 100 µM (inactive)"
molecule=Cc1nnc2n1-c1ccccc1-c1[nH]c3ccccc3c1C2 test_system="RXF 393" recorded_measurement="44.1 µM (inactive)"
molecule=O=C(OCCN=C1c2ccccc2CCc2ccccc21)c1cc([N+](=O)[O-])cc([N+](=O)[O-])c1 test_system="RXF 393" recorded_measurement="> 31.6 µM (inactive)"

Look up GI50: `CC(=O)CC(=O)ON(C)C(C)=O`
> 100 µM (inactive)

Look up GI50: COC(=O)C1=C(C(=O)OC)C23C=CC=CC24C(C(=O)OC)=C(C(=O)OC)C4C1C3 (stereo not given)
> 100 µM (inactive)

Look up GI50: `N#CCCN(c1ccc(/C=N/c2ccccc2Cl)cc1)S(=O)(=O)c1ccccc1`
> 100 µM (inactive)

Look up GI50: `CN(C)C(=O)Oc1c(Br)cc(Br)cc1C(=O)OCc1ccccc1`
38.4 µM (inactive)
